So I've got a bunch of compounds here, and I need their Prozentsatz der Sterilität values.
- System: tetraploidem Roggen Sorte Ukrainskaya
- procedure.summary: field test of gametocidal activity (sterilisation of anthers)
- Assay type: in vivo
- conditions: V. Periode, wäßrige Emulsion (concentration not given), 6 kg/ha
- Source text: Die gametozide Aktivität der erfindungsgemäßen Sterilisationsmittel war in Feldversuch in verschiedenen bodenklimatischen Zonen mit Teilstücken von 10 m^2 Größe in drei-- bis viermaliger Wiederholung nachgewiesen. Jedes Sterilisationsmittel wurde mindestens 5 Jahre lang geprüft. Die Entwicklung der Perioden der Organogenese wird zytologisch überwacht. Die Behandlung von Pflanzen mit dem Sterilisationsmittel erfolgt am Anfang der fünften Periode der Organogenese nach Kupermann. […]

Quick check: Prozentsatz der Sterilität of CC1C=CCCC1C(=O)O (stereo not shown) ?
100,0%

// same read-out, input: O=C(O)c1ccccc1
85,0%

Input CCOC(=O)c1ccccc1C(=O)OCC
100,0%

Continue with CC(C)COC(=O)c1ccccc1C(=O)OCC(C)C
100,0%

* * *

- procedure.summary: acute toxicity in animals
- Design: species or system weiße Ratten
- conditions: rat, in vivo
measure: LD50 (mg/kg)
Provide the reading as a plain figure in mg/kg.

Fill in: LD50 of CC1C=CCCC1C(=O)O (stereo not shown) is ___
7660

* * *

- Test system: Tritikale Sorte Amfidiploid 206
- procedure.summary: field test of gametocidal activity (sterilisation of anthers)
- Type: in vivo
- conditions: V. Periode, 1%ige wäßrige Emulsion, 6 kg/ha, control = 100
measure: Prozentsatz des Ansetzens bei freier Bestäubung

Test system Tritikale Sorte Amfidiploid 206; read-out Prozentsatz des Ansetzens bei freier Bestäubung; what value for CC1C=CCCC1C(=O)O (centres unmarked) [Beispiel 47] ?
103,1%

Proceed to CCCOC(=O)c1ccccc1C(=O)OCCC
87,3%

Same question for CC1C=CCCC1C(=O)O (centres unmarked) [Beispiel 45] please.
87,3%

// repeat for COC(=O)C1CCC=CC1C (centres unmarked) and report
89,6%

Would you mind doing CC(C)COC(=O)c1ccccc1C(=O)OCC(C)C as well?
89,3%

* * *

- Test system: Diploider Roggen Chulpan
- procedure.summary: field test of gametocidal activity (sterilisation of anthers)
- Assay type: in vivo
- conditions: Chulpan; V. Periode; 1%ige wäßrige Emulsion; 8 kg/ha
measure: Kornzahl der Ähre bei freier Bestäubung

Which Kornzahl der Ähre bei freier Bestäubung is listed for CCCCCCOC(=O)c1ccccc1C(=O)OCCCCCC ?
57,0

Param item: COC(=O)C1CCC=CC1C (stereo not drawn)
51,0

Now this one: CCCOC(=O)c1ccccc1C(=O)OCCC
53,2

* * *

Please provide measured Kornzahl der Ähre im Isolator for the entries that follow.
- Test system: tetraploidem Roggen Sorte Belta
- procedure.summary: field test of gametocidal activity (sterilisation of anthers)
- Type: in vivo
- conditions: V. Periode, 1%ige wäßrige Emulsion, 6 kg/ha

Need Kornzahl der Ähre im Isolator, item CCCOC(=O)c1ccccc1C(=O)OCCC
0,0

Then this compound: CC(C)COC(=O)c1ccccc1C(=O)OCC(C)C
0,0

For COC(=O)C1CCC=CC1C (stereo not shown) then?
0,0

Next entry: C=CCOC(=O)c1ccccc1C(=O)OCC=C
0,3

Queued: CCCCOC(=O)c1ccccc1C(=O)OCCCC
0,0

Next compound: CCCCCCOC(=O)c1ccccc1C(=O)OCCCCCC
0,2

// repeat for CC1C=CCCC1C(=O)O (stereo not shown) and report
0,1
